All values here come from patent US8067408B2.

Each item that follows carries a reported melting point.
Assay Metric: melting point

> print(dat)
                            smiles.notation     meas.value
1  CCc1nc2c(cnn2CC)c(NC2CCOCC2)c1CNC(=O)c1cccc(C(=O)NCc2ccc(C)c(-c3cccc(CN4CCN[C@@H](C)C4)c3)c2)c1  115 to 118 °C
2  CCc1nc2c(cnn2CC)c(NC2CCOCC2)c1CNC(=O)c1cccc(C(=O)NCc2ccc(C)c(-c3cccc(CN4CCNCC4)c3)c2)c1  135 to 138 °C
3  CCc1nc2c(cnn2CC)c(NC2CCOCC2)c1CNC(=O)c1cccc(C(=O)NCc2ccc(Cl)c(-c3cccc(CN4C[C@@H]5C[C@H]4CN5)c3)c2)c1  145 to 149 °C
4  CCc1nc2c(cnn2CC)c(NC2CCOCC2)c1CNC(=O)c1cc(C)cc(C(=O)NCc2ccc(C)c(-c3cccc(C=O)c3)c2)c1  117 to 120 °C
5  CCc1nc2c(cnn2CC)c(NC2CCOCC2)c1CNC(=O)c1cccc(C(=O)NCc2ccc(OC)c(-c3cccc(CN4CCN[C@@H](C)C4)c3)c2)c1  110 to 112 °C
6  CCc1nc2c(cnn2CC)c(NC2CCOCC2)c1CNC(=O)c1cccc(C(=O)NCc2cc(Cl)cc(-c3cccc(CN4C[C@@H](C)N[C@@H](C)C4)c3)c2)c1  112 to 114 °C
